Consider the following molecules and their measured Population Membrane Permeable-Phenotype (%) readings.
Tested on: Fibroblast
Assay: Multiplex assay against human fibroblast
Assay type: toxicity, cell-based
Details: 48 h, 10 µM, compound concentration 10 uM, replicate 1
The figure you give is taken to be in %; do not add the unit.

Recorded results for 6 molecules are shown here.
Query for Fibroblast: what Population Membrane Permeable-Phenotype (%) does the record show for O=C(NCCNCC(O)COc1ccc(O)cc1)N1CCOCC1.O=C(NCCNCC(O)COc1ccc(O)cc1)N1CCOCC1.O=C(O)/C=C/C(=O)O (stereo not drawn) [XAMOTEROL FUMARATE] ?
1

Identify the measured Population Membrane Permeable-Phenotype (%) of "Cc1nn(C)c2nc(NNC(=O)Nc3cc(Cl)nc(Cl)c3)cc(C(C)C)c12" for Fibroblast.
2

Which measured Population Membrane Permeable-Phenotype (%) belongs to "Nc1nc(CC(=O)Nc2ccc(CCNC[C@H](O)c3ccccc3)cc2)cs1" , tested on Fibroblast?
0

Requested read-out Population Membrane Permeable-Phenotype (%), target or system Fibroblast, entry "Cc1sc2c(c1C)C(c1ccc(Cl)cc1)=N[C@H](CC(=O)OC(C)(C)C)c1nnc(C)n1-2"
1

Request: Population Membrane Permeable-Phenotype (%), test system Fibroblast, entry "S=C(NCCCc1c[nH]cn1)NCCCN(Cc1ccc(Cl)c(Cl)c1)c1ccc(Br)cn1"
0

Look up Population Membrane Permeable-Phenotype (%) with Fibroblast for this molecule: "CC(C)C[C@H](CO)Nc1nc(S[C@@H](C)c2ccccc2)nc2nc(N)sc12"
0

Further cases:
Return Population Membrane Permeable-Phenotype (%) measured with Fibroblast given this molecule: "CSc1nc(NC2CCCC2)c([N+](=O)[O-])c(NC2CCCC2)n1"
1

// map CN1C[C@H](C(=O)N[C@]2(C)O[C@@]3(O)[C@@H]4CCCN4C(=O)[C@H](Cc4ccccc4)N3C2=O)C[C@@H]2c3cccc4[nH]cc(c34)C[C@H]21.CS(=O)(=O)O [DIHYDROERGOTAMINE MESYLATE] to recorded Population Membrane Permeable-Phenotype (%) (system: Fibroblast)
1

Item: "COc1c(Nc2ccc(S(C)(=O)=O)nc2C)ncnc1OC1CCN(C(=O)OC(C)C)CC1" Test system: Fibroblast Read-out: Population Membrane Permeable-Phenotype (%) Value: ?
0

----------
System: U2OS
Experiment: Multiplex assay against U2OS
Assay type: toxicity, cell-based
Settings: human, 24 h, 10 µM, compound concentration 10 uM, replicate 2
readoutType: Population Hoechst High Intensity Objects (%)
Numbers only; they are read as %.

Some solved cases for reference:
Would you kindly share the measured Population Hoechst High Intensity Objects (%) for CN(C)C/C=C/C(=O)Nc1ccc(C(=O)N2CCCC(Nc3ncc(Cl)c(-c4c[nH]c5ccccc45)n3)C2)cc1 (stereo not given) ?
5

Fill blank: measured Population Hoechst High Intensity Objects (%) of the molecule CCC(=O)OCC(=O)[C@@]1(OC(=O)CC)[C@@H](C)C[C@H]2[C@@H]3CCC4=CC(=O)C=C[C@]4(C)[C@@]3(Cl)[C@@H](O)C[C@@]21C [BECLOMETHASONE DIPROPIONATE] is ____.
9

Fill blank: measured Population Hoechst High Intensity Objects (%) of the molecule "O=C(Nc1cc(-c2ccccc2)nn1-c1ccccc1F)c1ccc([N+](=O)[O-])cc1" is ____.
0

I am curious: what Population Hoechst High Intensity Objects (%) value has been reported for "Nc1nc(-c2ccco2)c2cnn(Cc3ccccc3F)c2n1" ?
1

Could you share which Population Hoechst High Intensity Objects (%) value was measured for "CC(C)(C)c1ccc(CSc2cnn(C(C)(C)C)c(=O)c2Cl)cc1" ?
1

Next:
Consider the molecule shown here: "CN1CCN(c2ccc(Nc3c4ccccc4nc4ccccc34)cc2)CC1.Cl.Cl.O" What is its recorded Population Hoechst High Intensity Objects (%)?
10

Name the recorded Population Hoechst High Intensity Objects (%) for "Cc1nn(C)c2nc(NNC(=O)Nc3cc(Cl)nc(Cl)c3)cc(C(C)C)c12" .
2

For "Cn1cc(C(=O)OCC2CCN(CCNS(C)(=O)=O)CC2)c2ccccc21" , what is its reported Population Hoechst High Intensity Objects (%)?
1

What does the data say about its Population Hoechst High Intensity Objects (%)? Entry: "CC(C)(O)C(=O)N1CCN(c2ccc(C(F)(F)F)c(C3=C(c4c[nH]c5ccccc45)C(=O)NC3=O)c2)CC1"
2

What Population Hoechst High Intensity Objects (%) value was documented for this molecule, "S=C(NCCCc1c[nH]cn1)NCCCN(Cc1ccc(Cl)c(Cl)c1)c1ccc(Br)cn1" ?
2

Look at this molecule and give its reported Population Hoechst High Intensity Objects (%). "C[C@@H]1CC(=O)Nc2cccc(-c3ccc4c(c3)c(-c3cnn(C)c3)nn4C)c2N1"
1

Returns the measured Population Hoechst High Intensity Objects (%) for the input molecule. Input: "OCCCNc1cc(-c2ccnc(Nc3cccc(Cl)c3)n2)ccn1"
12

Can you look up the measured Population Hoechst High Intensity Objects (%) of "Cc1c(Cc2ccc3ccccc3n2)c2cc(F)ccc2n1CC(=O)O" for me?
0

Population Hoechst High Intensity Objects (%) lookup needed for "CN(C)C(=O)Cn1cc(-c2ccc(-c3nnc4ccccn34)cc2)cn1" , thanks.
1

Field request: Population Hoechst High Intensity Objects (%) | item: "CC(C)C[C@H](CO)Nc1nc(S[C@@H](C)c2ccccc2)nc2nc(N)sc12"
1

----------
A collection of molecules and their measured Population Mitochondria Different-Phenotype (%)
Tested on: U2OS
Assay: Multiplex assay against U2OS
Assay type: toxicity, cell-based
Details: human, 12 h, 10 µM, compound concentration 10 uM, replicate 2
The answer consists of two parts: a number and, after it, its unit.

Suppose we examine the molecule Cl.Cl.OCCOCCN1CCN(C(c2ccccc2)c2ccc(Cl)cc2)CC1 (configuration not stated) [HYDROXYZINE HYDROCHLORIDE] ; what Population Mitochondria Different-Phenotype (%) value has been reported?
7%

Find the recorded Population Mitochondria Different-Phenotype (%) belonging to COCCCN1CCC(NC(=O)c2cc(Cl)c(N)c3c2OCC3)CC1 [PRUCALOPRIDE] and report it.
1%

Returns the measured Population Mitochondria Different-Phenotype (%) for the input molecule. Input: "Cc1cc(=O)n(C)c2cc(N3C(=O)CC[C@H](NS(=O)(=O)CC(C)C)[C@H]3c3ccc(Cl)cc3)ccc12"
68%

Would you kindly share the measured Population Mitochondria Different-Phenotype (%) for "COCCn1c(C)c(C)s/c1=N\C(=O)C1C(C)(C)C1(C)C" ?
3%

Consider the molecule "Cn1cc(C(=O)OCC2CCN(CCNS(C)(=O)=O)CC2)c2ccccc21" and give its measured Population Mitochondria Different-Phenotype (%).
13%

Find the recorded Population Mitochondria Different-Phenotype (%) belonging to O=c1nc2[nH]c3ccccc3nc-2c(=O)[nH]1 [ALLOXAZINE] and report it.
5%

Name the reported Population Mitochondria Different-Phenotype (%) value associated with the molecule "C[C@@H]1CC(=O)Nc2cccc(-c3ccc4c(c3)c(-c3cnn(C)c3)nn4C)c2N1"
7%

Item Cc1cc(NC(=O)NCCN2CCC(O)(Cc3ccccc3)CC2)c2ccccc2n1 [PALOSURAN] has what recorded Population Mitochondria Different-Phenotype (%)?
2%

---
Value lookup for Population Mitochondria Different-Phenotype (%); key = COc1c(Nc2ccc(S(C)(=O)=O)nc2C)ncnc1OC1CCN(C(=O)OC(C)C)CC1 [ADP-597]
3%

GET /values?readout=Population Mitochondria Different-Phenotype (%)&item= Nc1nc(CC(=O)Nc2ccc(CCNC[C@H](O)c3ccccc3)cc2)cs1 [MIRABEGRON]
3%

----------
The entries below are paired with their reported Population Pyknosed Nuclei (%).
Test system: HEK-293T
Test: Multiplex assay against HEK293T
Format: toxicity, cell-based
Conditions: human, 12 h, 1 µM, compound concentration 1 uM, replicate 1

Would you please look over these solved cases?
So what does the record say about Population Pyknosed Nuclei (%) for "Cc1cc(=O)n(C)c2cc(N3C(=O)CC[C@H](NS(=O)(=O)CC(C)C)[C@H]3c3ccc(Cl)cc3)ccc12" ?
8%

GET /values?readout=Population Pyknosed Nuclei (%)&item= COc1cc2nc(N3CCN(C(=O)c4ccco4)CC3)nc(N)c2cc1OC.Cl [PRAZOSIN HYDROCHLORIDE]
11%

More entries:
Can you look up the measured Population Pyknosed Nuclei (%) of "Cc1sc2c(c1C)C(c1ccc(Cl)cc1)=N[C@H](CC(=O)OC(C)(C)C)c1nnc(C)n1-2" for me?
10%

----------
Test system: HEK-293T
Experiment: Multiplex assay against HEK293T
Format: toxicity, cell-based
Conditions: human, 24 h, 1 µM, compound concentration 1 uM, replicate 1
readoutType: Population Membrane Permeable-Phenotype (%)
Entry format: amount then unit.

Recorded Population Membrane Permeable-Phenotype (%), per entry:
What does the record list as Population Membrane Permeable-Phenotype (%) for "COc1cc(Nc2ncc3c(n2)-c2ccc(Cl)cc2C(c2c(F)cccc2OC)=NC3)ccc1C(=O)O" ?
0%

Looking for the measured Population Membrane Permeable-Phenotype (%) of "CC(C)C[C@H](CO)Nc1nc(S[C@@H](C)c2ccccc2)nc2nc(N)sc12" , can you help?
0%

Quick check: Population Membrane Permeable-Phenotype (%) of "COc1c(Nc2ccc(S(C)(=O)=O)nc2C)ncnc1OC1CCN(C(=O)OC(C)C)CC1" ?
0%

Looking for the measured Population Membrane Permeable-Phenotype (%) of "COc1ccc2[nH]c(I)c(CCNC(C)=O)c2c1" , can you help?
1%

# get_value(readout='Population Membrane Permeable-Phenotype (%)', item= COCCCN1CCC(NC(=O)c2cc(Cl)c(N)c3c2OCC3)CC1 [PRUCALOPRIDE] )
1%

Next:
May I ask what Population Membrane Permeable-Phenotype (%) has been recorded for "O=C(Nc1cc(-c2ccccc2)nn1-c1ccccc1F)c1ccc([N+](=O)[O-])cc1" ?
0%

Requested field: Population Membrane Permeable-Phenotype (%). Item: "S=C(NCCCc1c[nH]cn1)NCCCN(Cc1ccc(Cl)c(Cl)c1)c1ccc(Br)cn1"
0%

Form field: reported Population Membrane Permeable-Phenotype (%) of "COC(c1ccccc1)(c1ccccc1)[C@H](Oc1nc(C)cc(C)n1)C(=O)O"
1%

Suppose we examine the compound "COc1cc(C(=O)N2CC[C@@H](O)[C@@H](N)C2)cc2nc(-c3cc4ccccc4n3CC3CC3)n(C)c12.Cl" ; what Population Membrane Permeable-Phenotype (%) value has been reported?
0%

Sample "COCCn1c(C)c(C)s/c1=N\C(=O)C1C(C)(C)C1(C)C" — what was its Population Membrane Permeable-Phenotype (%)?
0%

Entry source: ChEMBL document CHEMBL5058577
